- Condition Description: in n-propanol, 328.15 K
I'd be grateful if you could share measured solubility (mole fraction) for these entries.

Would you kindly share the measured solubility (mole fraction) for "COc1ccc(-c2cc(-c3ccc(O)c(OC)c3)c(C#N)c(=O)[nH]2)cc1" ?
0.00103

Would you kindly share the measured solubility (mole fraction) for "COc1cc(-c2cc(-c3ccc(F)cc3)[nH]c(=O)c2C#N)ccc1O" ?
0.00119

Would you kindly share the measured solubility (mole fraction) for "COc1cc(-c2cc(-c3ccc(O)cc3)[nH]c(=O)c2C#N)ccc1O" ?
0.00116

Would you kindly share the measured solubility (mole fraction) for "COc1cc(-c2cc(-c3ccc(Br)cc3)[nH]c(=O)c2C#N)ccc1O" ?
0.00105

Would you kindly share the measured solubility (mole fraction) for "COc1cc(-c2cc(-c3ccc(Cl)cc3)[nH]c(=O)c2C#N)ccc1O" ?
0.00107

---

- Condition Description: in chloroform, 298.15 K
I'd be grateful if you could share measured solubility (mole fraction) for these entries.
Answer field: number only, no words.

Would you kindly share the measured solubility (mole fraction) for "COc1cc(-c2cc(-c3ccc(F)cc3)[nH]c(=O)c2C#N)ccc1O" ?
0.00134

Would you kindly share the measured solubility (mole fraction) for "COc1cc(-c2cc(-c3ccc(O)cc3)[nH]c(=O)c2C#N)ccc1O" ?
0.00123

Would you kindly share the measured solubility (mole fraction) for "COc1cc(-c2cc(-c3ccc(Cl)cc3)[nH]c(=O)c2C#N)ccc1O" ?
0.00118

Would you kindly share the measured solubility (mole fraction) for "COc1ccc(-c2cc(-c3ccc(O)c(OC)c3)c(C#N)c(=O)[nH]2)cc1" ?
0.00111

Would you kindly share the measured solubility (mole fraction) for "COc1cc(-c2cc(-c3ccc(Br)cc3)[nH]c(=O)c2C#N)ccc1O" ?
0.00114

---

- Condition Description: in n-propanol, 313.15 K
Recorded Metric: solubility (mole fraction)
Answer field: number only, no words.

Would you kindly share the measured solubility (mole fraction) for "COc1ccc(-c2cc(-c3ccc(O)c(OC)c3)c(C#N)c(=O)[nH]2)cc1" ?
0.000886

Would you kindly share the measured solubility (mole fraction) for "COc1cc(-c2cc(-c3ccc(Br)cc3)[nH]c(=O)c2C#N)ccc1O" ?
0.0009

Would you kindly share the measured solubility (mole fraction) for "COc1cc(-c2cc(-c3ccc(O)cc3)[nH]c(=O)c2C#N)ccc1O" ?
0.00098

Would you kindly share the measured solubility (mole fraction) for "COc1cc(-c2cc(-c3ccc(Cl)cc3)[nH]c(=O)c2C#N)ccc1O" ?
0.000929

Would you kindly share the measured solubility (mole fraction) for "COc1cc(-c2cc(-c3ccc(F)cc3)[nH]c(=O)c2C#N)ccc1O" ?
0.00101

---

- Condition Description: in chloroform, 303.15 K
I'd be grateful if you could share measured solubility (mole fraction) for these entries.
Answer field: number only, no words.

Would you kindly share the measured solubility (mole fraction) for "COc1ccc(-c2cc(-c3ccc(O)c(OC)c3)c(C#N)c(=O)[nH]2)cc1" ?
0.00116

Would you kindly share the measured solubility (mole fraction) for "COc1cc(-c2cc(-c3ccc(F)cc3)[nH]c(=O)c2C#N)ccc1O" ?
0.00139

Would you kindly share the measured solubility (mole fraction) for "COc1cc(-c2cc(-c3ccc(Cl)cc3)[nH]c(=O)c2C#N)ccc1O" ?
0.00123

Would you kindly share the measured solubility (mole fraction) for "COc1cc(-c2cc(-c3ccc(O)cc3)[nH]c(=O)c2C#N)ccc1O" ?
0.0013

Would you kindly share the measured solubility (mole fraction) for "COc1cc(-c2cc(-c3ccc(Br)cc3)[nH]c(=O)c2C#N)ccc1O" ?
0.00119
